target_or_test_system: HDAC2 (Homo sapiens)
Construct: purchased Reaction Biology Corporation (assay run by the CRO)
Sequence (Q92769 whole entry): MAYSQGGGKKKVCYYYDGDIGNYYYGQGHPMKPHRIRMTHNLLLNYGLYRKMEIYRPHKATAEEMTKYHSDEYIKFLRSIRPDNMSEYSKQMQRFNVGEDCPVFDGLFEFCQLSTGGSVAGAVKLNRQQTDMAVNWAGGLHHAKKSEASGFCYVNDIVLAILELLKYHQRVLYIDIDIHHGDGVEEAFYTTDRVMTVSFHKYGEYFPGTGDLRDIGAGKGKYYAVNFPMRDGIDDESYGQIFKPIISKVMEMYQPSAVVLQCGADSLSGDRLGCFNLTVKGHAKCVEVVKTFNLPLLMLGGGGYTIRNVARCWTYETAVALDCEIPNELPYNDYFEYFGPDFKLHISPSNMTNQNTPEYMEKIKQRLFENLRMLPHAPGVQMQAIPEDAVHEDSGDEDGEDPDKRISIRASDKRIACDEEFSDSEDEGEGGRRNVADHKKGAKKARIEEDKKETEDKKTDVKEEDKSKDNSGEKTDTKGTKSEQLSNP
test_name: HDAC2 inhibition, full IC50 measurement (Reaction Biology; fluorogenic p53 peptide RHKK(Ac)AMC)
Type: biochemical
condition_description: Conc. 1.37E-08 M, t2
Peptide text beside a SMILES is read from it.
Below: a set of entries, each annotated with reported HDAC2 activity raw data (signal).
Form field (numeric): enter value without unit.

# count of solved cases: 2
| compound | measured_parameter | measurement |
| --- | --- | --- |
| NCCCC[C@@H]1NC(=O)[C@@H]2CCCN2C(=O)[C@H](CC(N)=O)NC(=O)[C@H](CCCCCS)NC(=O)CNC(=O)[C@H](Cc2c[nH]c3ccccc23)NC(=O)[C@@H](CCCCN)NC(=O)[C@H](CCC(N)=O)NC1=O [des1.1.0, SHA-Asn-Pro-Lys-Gln-dLys-Trp-Gly] (HELM PEPTIDE1{G.[O=C([C@H](CCCCCS)N[*:1])[*:2]].N.P.K.Q.[dK].W}$PEPTIDE1,PEPTIDE1,1:R1-8:R2$$$V2.0) | HDAC2 activity raw data (signal) | 1098979 |
| CC(C)C[C@H]1NC(=O)[C@H](Cc2c[nH]c3ccccc23)NC(=O)[C@H](CCCCCS)NC(=O)[C@@H](Cc2ccc(O)cc2)NC(=O)[C@@H](C(C)C)NC(=O)[C@H](Cc2c[nH]cn2)NC(=O)CNC(=O)CNC(=O)[C@@H](CO)NC1=O [des2.2.0, SHA-Trp-dLeu-dSer-Gly-Gly-His-dVal-dTyr] (HELM PEPTIDE1{G.G.H.[dV].[dY].[O=C([C@H](CCCCCS)N[*:1])[*:2]].W.[dL].[dS]}$PEPTIDE1,PEPTIDE1,1:R1-9:R2$$$V2.0) | HDAC2 activity raw data (signal) | 821926 |

Now examine the next entry.
Please fill in: HDAC2 activity raw data (signal) reported for CSCC[C@H]1NC(=O)[C@@H](CO)NC(=O)[C@H](CC(N)=O)NC(=O)[C@H](CC(=O)O)NC(=O)[C@@H]([C@H](C)O)NC(=O)[C@H](Cc2c[nH]c3ccccc23)NC(=O)[C@H](CCCCCS)NC(=O)[C@H](CCCCN)NC(=O)[C@@H](CC(=O)O)NC1=O [des2.1.1, SHA-Trp-dThr-Asp-Asn-dSer-dMet-dAsp-Lys] (HELM PEPTIDE1{D.N.[dS].[dM].[dD].K.[O=C([C@H](CCCCCS)N[*:1])[*:2]].W.[dT]}$PEPTIDE1,PEPTIDE1,1:R1-9:R2$$$V2.0) = 552663

---

target_or_test_system: HDAC2 (Homo sapiens)
Construct: purchased Reaction Biology Corporation (assay run by the CRO)
test_name: HDAC2 inhibition, full IC50 measurement (Reaction Biology; fluorogenic p53 peptide RHKK(Ac)AMC)
Format: biochemical
condition_description: Conc. 3.70E-07 M, t1
Peptide text beside a SMILES is read from it.
measured_parameter: HDAC2 activity raw data (signal)
Keep it simple and answer with nothing but the number.

compound N=C(N)NCCC[C@H]1NC(=O)[C@@H]2CCCN2C(=O)[C@H](CO)NC(=O)[C@@H](Cc2c[nH]cn2)NC(=O)[C@H](CCCCCS)NC(=O)[C@H](CCCCN)NC(=O)[C@H](Cc2ccc(O)cc2)NC(=O)[C@H]2CCCN2C(=O)[C@@H](CCC(N)=O)NC1=O [des3.1.0, SHA-dHis-Ser-Pro-dArg-dGln-dPro-Tyr-Lys] (HELM PEPTIDE1{K.[O=C([C@H](CCCCCS)N[*:1])[*:2]].[dH].S.P.[dR].[dQ].[dP].Y}$PEPTIDE1,PEPTIDE1,1:R1-9:R2$$$V2.0) , HDAC2 activity raw data (signal) observed: 565181
